targetUnderTest: T1, human ROR1 on cells (full-length human ROR1 on huROR1-HEK293 cells; human ROR1 on A549 and HT-29 tumor cells) (human, UniProt Q01973 30-937)
T1 construct: whole, on cells; also called hROR1-HEK293T; A549 tumor cells
T1 sequence (Q01973 30-937): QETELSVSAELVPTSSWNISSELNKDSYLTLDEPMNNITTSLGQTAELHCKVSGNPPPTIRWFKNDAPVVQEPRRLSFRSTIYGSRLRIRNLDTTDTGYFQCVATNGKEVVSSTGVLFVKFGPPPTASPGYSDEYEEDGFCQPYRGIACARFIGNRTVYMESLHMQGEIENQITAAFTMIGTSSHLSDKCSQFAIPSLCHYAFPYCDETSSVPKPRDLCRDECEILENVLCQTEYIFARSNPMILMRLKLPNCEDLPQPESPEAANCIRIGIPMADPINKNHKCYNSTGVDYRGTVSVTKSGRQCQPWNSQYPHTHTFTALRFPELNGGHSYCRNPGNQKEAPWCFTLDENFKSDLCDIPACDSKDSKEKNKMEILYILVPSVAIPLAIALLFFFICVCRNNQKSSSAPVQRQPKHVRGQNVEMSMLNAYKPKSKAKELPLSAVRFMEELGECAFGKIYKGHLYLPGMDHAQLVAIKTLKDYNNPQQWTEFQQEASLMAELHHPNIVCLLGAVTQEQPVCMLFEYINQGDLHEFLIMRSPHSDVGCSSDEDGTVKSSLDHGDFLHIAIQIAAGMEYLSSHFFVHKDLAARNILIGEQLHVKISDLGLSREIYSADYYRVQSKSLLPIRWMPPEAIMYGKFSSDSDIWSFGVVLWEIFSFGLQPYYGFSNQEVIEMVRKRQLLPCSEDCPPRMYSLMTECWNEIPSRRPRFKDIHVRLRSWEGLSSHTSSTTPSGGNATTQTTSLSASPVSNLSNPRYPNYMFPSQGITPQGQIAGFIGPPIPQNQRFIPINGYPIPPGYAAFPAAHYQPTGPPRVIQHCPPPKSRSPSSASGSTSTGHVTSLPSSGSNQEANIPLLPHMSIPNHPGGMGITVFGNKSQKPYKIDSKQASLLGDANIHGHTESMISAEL
test: flow cytometry (FACS) on A549 tumor cells, anti-human IgG-Fc secondary antibody, MFI
measuredAttribute: EC50 (read off the curve)

Return EC50 (read off the curve) (reported value) for this binder: M71 (chimeric antibody) (antibody, human IgG1, kappa, V domains shown, ExpiCHO expression) VH: EVMLVESGGGLVKPGGSLKLSCAASGFTFSRYAMSWVRQTPEKRLEWVASINRGGTTYYPDSVKGRFTISRDNARDILYLQMSSLRSEDTAIYYCARDYYYGSSLYNGMDFWGQGTSVIVSS VL: DIQMTQSPSSMYASLGERVTITCKASQDINSYLSWFQQKPGKSPKTLIYRANRLVDGVPSRFSGSGSGQDYSLTISSLESEDMGIYYCLQFDEFPYTFGGGTKLEIKR ~0.01 µg/mL

Return EC50 (read off the curve) (reported value) for this binder: B62 (chimeric antibody) (antibody, human IgG1, kappa, V domains shown, ExpiCHO expression) VH: DVKLVESGGGLVQPGGSLKLSCAASGFTFSSYVMSWVRQTPDKRLELVATINSNGGNTYYPDSVKGRFTISRDNAKNTLYLQMSSLKSEDTAMYYCARDSLGLRRRDYAMDYWGQGTSVTVSS VL: DIVLTQSPASLSMAIGEKVTIRCVTSIDIDDDVNWYQQKPGKPPKLLISAGNTLRPGVPSRFSSSGYGTDFVFTIENMLSEDVADYYCLQSDNLPYTFGGGTKLEIKR ~0.006 µg/mL

As a next step, examine the binder that follows.
Return EC50 (read off the curve) (reported value) for this binder: C77 (chimeric antibody) (antibody, human IgG1, kappa, V domains shown, ExpiCHO expression) VH: EVKLVESGGGLVKPGGSLKLSCAASGFSFSNYAMSWVRQTPEKRLEWVASINSGVTTYYPDSVKGRFTVSRDNARNILYLHMTGLRSEDTAIYYCSRGYYYGGSPYWHFDVWGAGTTVTVSS VL: DIQMTQSPSSMHASLGERVTITCKASQDINNYVSWFQQKPGKSPKTLIYRANRLVDGVPSRFSGSGSGQDYSFTISSLEYEDMGIYYCLQFDEFPYTFGGGTKLEIKR ~0.02 µg/mL
